Reference source for all entries: PubChem BioAssay (NCATS)

measurementDescription: BET inhibitor-based combinations targeting novel dependencies in MECOM-rearranged (r) AML: HNT-34 cell line (AID 2202234); also: nearly all actives have a fitted effect of over 35% in size
reportedConditions: HNT-34 AML viability, CellTiter-Glo luminescence, 48 h; series mostly up to 46 µM
Records with an inconclusive call do not appear. Active and inactive are the calls of the source. Calls follow the shape of the dose curve; as a rule, active = well fitted inhibition curve with a large enough effect; inconclusive = small, poorly fitted or top-dose-only effect; inactive = no such curve, though single readings can be large or run the other way.
The reply should be one of these categories: active, inactive

Incoming: Record lookup: outcome of this test for CN(CCOc1ccc(C[C@H](Nc2ccccc2C(=O)c2ccccc2)C(=O)O)cc1)c1ccccn1 ?
Outgoing: inactive

Incoming: Record lookup: outcome of this test for N#Cc1ccc(Cn2cncc2CN2CCN(c3cccc(Cl)c3)C(=O)C2)cc1 ?
Outgoing: active

Incoming: Record lookup: outcome of this test for Cc1cnc(NC(=O)c2cc(Oc3cnc(C(=O)N(C)C)nc3)c3cc(C)oc3c2)cn1 ?
Outgoing: inactive

Incoming: Record lookup: outcome of this test for CCOc1cc(/C=C2/C(=O)N(c3ccccc3)N=C2C)cc(Cl)c1OCC(=O)OC ?
Outgoing: inactive

Incoming: Record lookup: outcome of this test for COc1ccc(CNC(=O)c2cc(-c3cncc(Cl)c3)cnc2-c2ccccn2)nc1OC ?
Outgoing: inactive

Incoming: Record lookup: outcome of this test for N#Cc1ccc(C(c2ccc(C#N)cc2)n2cncn2)cc1 ?
Outgoing: inactive

Incoming: Record lookup: outcome of this test for COc1ccc(S(=O)(=O)NCc2ccc(C(=O)NCCc3ccc(Cl)cn3)cc2)cc1 ?
Outgoing: inactive

Incoming: Record lookup: outcome of this test for CCN1C(=O)N2Cc3cc(OC)cc(OC)c3[C@@H](C)C=C2C12CCN(Cc1cc(C)cc(C)c1)CC2 ?
Outgoing: active

Incoming: Record lookup: outcome of this test for CCc1cc(/C(C)=N/OCc2ccc(C3CCCCC3)c(C(F)(F)F)c2)ccc1CN1CC(C(=O)O)C1 ?
Outgoing: inactive
